The reported measurements were obtained from PubChem BioAssay AID278.

- Test system: nude mice, A549 intrarenal xenograft, tumor weight change
- experiment-description: NCI In Vivo Anticancer Drug Screen. Data for tumor model A549 Human Adenocarcinoma of Lung with characteristics of Type II Alveolar Epithelial cells (intrarenal inoculation) in NU/NU BALB/C (nude) mice
- cond: endpoint: mean tumor weight change; dose: 75.0 mg/kg/injection; schedule: Q04DX003 (ip); vehicle: saline; higher = larger tumour
Results filed as inconclusive are left out.
Reported T/C values are given for each entry in this list.

In the examples that follow, each entry is paired with its recorded T/C.
>>> result("O=C(Oc1ccccc1)c1cc(O)c(O)c(O)c1")
"50 % of control"
>>> result("COc1ccc2oc(-c3ccc(Cl)cc3)c(N3CCN(C)CC3)c2c1")
"21 % of control"
>>> result("NNC(=O)c1ccncc1")
"104 % of control"

Then this molecule:
*Q* Returns the measured T/C for the input molecule. Input: CC(=O)NCCSSCCCCS(=O)O
*A* 111 % of control

====

Quick reference for T/C among some compounds
- Test system: nude mice, A549 intrarenal xenograft, tumor weight change
- experiment-description: NCI In Vivo Anticancer Drug Screen. Data for tumor model A549 Human Adenocarcinoma of Lung with characteristics of Type II Alveolar Epithelial cells (intrarenal inoculation) in NU/NU BALB/C (nude) mice
- cond: endpoint: mean tumor weight change; dose: 25.0 mg/kg/injection; schedule: Q04DX003 (ip); vehicle: saline; higher = larger tumour
Results filed as inconclusive are left out.

Use these answered entries as a reference point.
>>> result("CCOc1ccc(-c2nc3ccc(-c4nc5ccc(N6CCN(C)CC6)cc5[nH]4)cc3[nH]2)cc1")
"101 % of control"
>>> result("CS(=O)(=O)CS(=O)(=O)OCCF")
"50 % of control"
>>> result("CN=NN(C)C(=O)NC")
"37 % of control"

*Q* Record request: T/C value, item COc1cccc2c1C(CO)N1C(C#N)C3CC(C(=O)O)C(C1C2)N3C (stereo not given)
*A* 33 % of control

====

- System: nude mice, A549 intrarenal xenograft, tumor weight change
- experiment-description: NCI In Vivo Anticancer Drug Screen. Data for tumor model A549 Human Adenocarcinoma of Lung with characteristics of Type II Alveolar Epithelial cells (intrarenal inoculation) in NU/NU BALB/C (nude) mice
- cond: endpoint: mean tumor weight change; dose: 37.5 mg/kg/injection; schedule: Q04DX003 (ip); vehicle: Klucel (hydroxypropylcellulose) (HPC); higher = larger tumour
Results filed as inconclusive are left out.
measurement-label: T/C

Solved cases (3 shown):
>>> result("CCCCCNc1ncnc2c(C)[nH]nc12")
"82 % of control"
>>> result("CC1=C(C(N)=O)C(c2ccccc2)NC(=S)N1 (centres undefined)")
"66 % of control"
>>> result("COC1CC2C=C(C)/C=C/C=C/C(=O)NC(c3ccccc3)C/C=C/CCC(O)CC(=O)C2=C1O (centres undefined)")
"17 % of control"

From here, focus on the item given below.
*Q* Requested read-out: T/C. Entry: O=[N+]([O-])c1ccc([I+]c2ccccc2)cc1
*A* 101 % of control

====

- Test system: nude mice, A549 intrarenal xenograft, tumor weight change
- experiment-description: NCI In Vivo Anticancer Drug Screen. Data for tumor model A549 Human Adenocarcinoma of Lung with characteristics of Type II Alveolar Epithelial cells (intrarenal inoculation) in NU/NU BALB/C (nude) mice
- cond: endpoint: mean tumor weight change; dose: 50.0 mg/kg/injection; schedule: Q04DX003 (ip); vehicle: saline with Tween-80; higher = larger tumour
Records with an inconclusive call do not appear.
T/C reference

>>> result("[NH-]C(CCC(N)=O)C(=O)O.[NH-]C(CCC(N)=O)C(=O)O.[Zn+2] (stereo not drawn)")
"29 % of control"
>>> result("Cn1c2ccccc2c2ccc3c(c21)C(=O)C=CC3=O")
"26 % of control"
>>> result("NC(Cc1ccc(N(CCCl)Cc2ccccc2)cc1)C(=O)O (stereo not drawn)")
"74 % of control"
>>> result("Cc1ccoc1")
"78 % of control"
>>> result("COc1ccc(C(C)c2cc3c(cc2OC)OCO3)cc1 (stereo not drawn)")
"33 % of control"
>>> result("O=C1C2CC(Cl)C(SSC3CC4C(=O)N(SC(Cl)(Cl)C(Cl)Cl)C(=O)C4CC3Cl)CC2C(=O)N1SC(Cl)(Cl)C(Cl)Cl (stereo not drawn)")
"78 % of control"
>>> result("C/C(=N\\NC(=S)N1CC2CCC(CC2)C1)c1nccs1")
"32 % of control"
>>> result("O=[N+]([O-])c1ccc(N(CCO)CCO)c2c1no[n+]2[O-]")
"34 % of control"
>>> result("S=C(N/N=C1/CCCC/C1=N/NC(=S)N1CCOCC1)N1CCOCC1")
"82 % of control"
>>> result("Cc1cccc(OCC(O)CN2CC2)c1 (stereo not drawn)")
"82 % of control"

*Q* Request the reported T/C associated with CC(O)C1(O)C(O)CC(OC2c3cc4c(c(O)c3[C@@H]3C[C@@]2(C)OC32C=c3cc[nH]c3=N2)C(=O)c2cccc(O)c2C4=O)OC1C (stereo partly drawn)
*A* 55 % of control

*Q* Now this one: CC(=O)C[n+]1ccccc1Sc1ccc(Cl)cc1
*A* 93 % of control

*Q* Please give the result for CCOC(=O)/N=[N+](\[O-])c1ccccc1 too.
*A* 217 % of control
